Source of measurements: ChEMBL document CHEMBL1201862

- Test system: TK-10
- MEASUREMENT_PROTOCOL: NCI tumour cell line growth inhibition, 48 h
Activity calls are given as the source filed them. Cut-off read from the data, not from the text of the source: active = GI50 up to about 1.1 µM and inactive = higher.
Return exactly one item of active, inactive

- COMPOUND: "O=C1/C(=C/c2ccco2)N=C2Sc3c([nH]cnc3=O)N12"
  DISCRETE_LABEL: "inactive"
- COMPOUND: "N#CN1CC[C@@H]2CC3(CCC2C1)OCCO3 (stereo not given in full)"
  DISCRETE_LABEL: "inactive"
- COMPOUND: "Cc1cc2nc3c(=O)[nH]c(=O)nc-3n(CC(O)C(O)C(O)CO)c2cc1N (stereo not given)"
  DISCRETE_LABEL: "inactive"
- COMPOUND: "CCN(CC)C(=O)Cn1c2ccccc2[n+]2cc(N)ccc12"
  DISCRETE_LABEL: "inactive"
- COMPOUND: "O=C(Nc1ccc(Cl)cc1Cl)c1c/c(=N\\O)c2ccc(O)cc2o1"
  DISCRETE_LABEL: "inactive"

(Q) What call does the record list for Cc1c(N)nc(C(CC(N)=O)NCC(N)C(N)=O)nc1C(=O)NC(C(=O)NC(C)C(O)C(C)C(=O)NC(C(=O)NCCc1nc(-c2nc(C(=O)NCCCNCCCCN)cs2)cs1)C(C)O)C(OC1OC(CO)C(O)C(O)C1OC1OC(CO)C(O)C(OC(N)=O)C1O)c1c[nH]cn1 (stereo not given) ?
(A) inactive

(Q) What call does the record list for O=C(Nc1ccc([N+](=O)[O-])cc1[N+](=O)[O-])C(=O)C(C(=O)c1ccc(Cl)c(Cl)c1)C1OC(=O)c2ccccc21 (stereo not given) ?
(A) inactive

(Q) What call does the record list for S=P(C1CCCCC1)(C1CCCCC1)C(c1cccnc1)N1CCCC1 (stereo not given) ?
(A) inactive

(Q) What call does the record list for Cc1nccn1S(=O)(=O)c1ccc(Cl)cc1 ?
(A) inactive

(Q) What call does the record list for CC1=NOC2(C1)/C(=N/O)CCC/C2=N\O (stereo not given) ?
(A) inactive

(Q) What call does the record list for COc1ccc(/C(=N/O)C(c2ccc(OC)cc2)C2C(=O)Oc3ccccc32)cc1 (stereo not given) ?
(A) inactive

(Q) What call does the record list for C=C1[C@@H](C)[C@H]2[C@H](Cc3ccccc3)NC(=O)[C@]23OC(=O)/C=C/[C@H](O)CCC[C@@H](C)C/C=C/[C@H]3[C@@H]1O ?
(A) inactive

(Q) What call does the record list for N#Cc1cnn2ccn(C3OC(COC(=O)c4ccccc4)C(OC(=O)c4ccccc4)C3OC(=O)c3ccccc3)c12 (stereo not given) ?
(A) inactive

(Q) What call does the record list for Nc1nc(SCCC/C=C/B(O)O)nc2c1ncn2C1OC(CO)C(O)C1O (stereo not given) ?
(A) inactive

(Q) What call does the record list for Oc1ccc(CNCc2ccccc2)c2cccnc12 ?
(A) active

(Q) What call does the record list for CC(=O)OCC1OC(O[C@@H]2C[C@H]3C(C)(C)[C@@H](OC(C)=O)CC[C@]3(C)[C@H]3CC[C@]45C[C@]4(CC[C@H]5[C@@H](C)C[C@@H](O)[C@H](O)C(C)(C)F)[C@@]32C)C(O)C(O)C1O (stereo not given in full) ?
(A) inactive

(Q) What call does the record list for N#C[C@]12CC3(CC[C@H]1CC1(C2)OCCO1)OCCO3 ?
(A) inactive
